Target: beta-catenin/TCF4 engagement (Homo sapiens, UniProt P35222)
Construct: expressed in transfected cells; host or cells: HEK293
Sequence (P35222 whole entry): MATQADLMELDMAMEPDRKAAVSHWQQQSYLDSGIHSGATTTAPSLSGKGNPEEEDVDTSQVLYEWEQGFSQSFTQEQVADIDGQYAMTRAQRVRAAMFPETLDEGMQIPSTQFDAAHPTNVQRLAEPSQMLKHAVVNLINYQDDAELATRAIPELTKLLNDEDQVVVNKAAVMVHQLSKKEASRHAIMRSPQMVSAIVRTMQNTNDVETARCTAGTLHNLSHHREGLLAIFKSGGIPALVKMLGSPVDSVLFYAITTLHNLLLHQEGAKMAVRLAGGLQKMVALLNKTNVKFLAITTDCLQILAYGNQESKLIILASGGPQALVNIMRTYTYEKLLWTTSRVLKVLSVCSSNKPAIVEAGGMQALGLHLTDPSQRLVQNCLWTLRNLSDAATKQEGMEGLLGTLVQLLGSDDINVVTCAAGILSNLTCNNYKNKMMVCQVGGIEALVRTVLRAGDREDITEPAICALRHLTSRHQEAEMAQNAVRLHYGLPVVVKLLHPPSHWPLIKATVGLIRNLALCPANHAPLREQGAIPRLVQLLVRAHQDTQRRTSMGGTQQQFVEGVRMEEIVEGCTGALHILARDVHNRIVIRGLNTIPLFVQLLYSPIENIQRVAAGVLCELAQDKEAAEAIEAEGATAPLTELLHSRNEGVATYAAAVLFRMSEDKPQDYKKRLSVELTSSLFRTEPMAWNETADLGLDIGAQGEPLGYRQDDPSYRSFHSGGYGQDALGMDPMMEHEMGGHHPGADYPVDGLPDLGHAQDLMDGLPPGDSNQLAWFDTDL
Assay: Nano-BRET target engagement assay (B-cat-Halo & TCF4-Luc in HEK293 cells)
Assay type: cell-based
Settings: absolute IC50; read-out: NanoBRET Abs IC50
ASSAY ENDPOINT: pIC50
The scale used: pIC50 is minus the common logarithm of the concentration in molar units.

Request: Given the entry CC(=O)N1CCC[C@]12CC=CCCCC1(CCCC=CCCCCCC[C@@](C)(C(=O)N[C@@H](Cc3ccsc3)C(=O)N[C@@H](Cc3csc4ccccc34)C(=O)N[C@@H](Cc3c[nH]cn3)C(N)=O)NC(=O)[C@H](CC(C)C)NC(=O)[C@H](Cc3ccccc3)NC(=O)[C@H](C)NC(=O)[C@H](C)NC(=O)[C@H](CC(=O)O)NC(=O)[C@H](CC(=O)O)NC1=O)NC(=O)[C@H](CC(C)(C)C)NC(=O)[C@H](CC(=O)O)NC2=O (some centres unmarked) , report its measured pIC50.
Response: 4.79

Request: Given the entry CC(=O)N1CCC[C@]12CC=CCCCC1(CCCC=CCCCOC(=O)N3CC[C@@](C(=O)N[C@@H](Cc4ccsc4)C(=O)N[C@@H](Cc4csc5ccccc45)C(=O)N[C@@H](Cc4ccccc4)C(N)=O)(C3)NC(=O)[C@H](CC(C)C)NC(=O)[C@H](Cc3ccccc3)NC(=O)[C@H](C)NC(=O)[C@H](C)NC(=O)[C@H](CC(=O)O)NC(=O)[C@H](CC(=O)O)NC1=O)NC(=O)[C@H](CC(C)(C)C)NC(=O)[C@H](CC(=O)O)NC2=O (some centres unmarked) , report its measured pIC50.
Response: 5.03

Request: Given the entry CC(=O)N1CCC[C@]12CC=CCCCC1(CCCC=CCCCOC(=O)N3CC[C@@](C(=O)N[C@@H](Cc4ccccc4C(F)(F)F)C(=O)N[C@H](C(=O)N[C@@H](CCC(N)=O)C(N)=O)[C@H](C)c4csc5ccccc45)(C3)NC(=O)[C@H](CC(C)C)NC(=O)[C@H](Cc3ccccc3)NC(=O)[C@H](C)NC(=O)[C@H](C)NC(=O)[C@H](Cc3cccc(C(=O)O)c3)NC(=O)[C@H](CC(=O)O)NC1=O)NC(=O)[C@H](CC(C)(C)C)NC(=O)[C@H](CC(=O)O)NC2=O (some centres unmarked) , report its measured pIC50.
Response: 5.23

* * *

Experiment: CHI Log D procedure
Type: physicochemical
Details: pH 7.4
Items are presented alongside their recorded CHI Log D.
Format: numeric value only, no unit, no commentary.

Some solved entries appear below for comparison.
- CC(=O)N1CCC[C@]12CC=CCCCC1(CCCC=CCCCCCC[C@@](C)(C(=O)N[C@@H](Cc3ccccc3)C(=O)N[C@@H](Cc3csc4ccccc34)C(N)=O)NC(=O)[C@H](CC(N)=O)NC(=O)[C@H](Cc3ccccc3)NC(=O)[C@H](C)NC(=O)[C@H](C)NC(=O)[C@H](CCC(=O)O)NC(=O)[C@H](CC(=O)O)NC1=O)NC(=O)[C@H](CC1CCCCC1)NC(=O)[C@H](CC(=O)O)NC2=O (stereo partly drawn) [I-627]: 3.002
- CCN(CC(=O)O)C[C@@H]1NC(=O)[C@H](CC(=O)O)NC(=O)C2(CCCC=CCCCOC(=O)N3CC[C@@](C(=O)N[C@@H](Cc4ccsc4)C(=O)N[C@@H](Cc4csc5ccccc45)C(=O)N[C@@H](CCC(N)=O)C(N)=O)(C3)NC(=O)[C@H](CC(C)C)NC(=O)[C@H](Cc3ccccc3)NC(=O)[C@H](C)NC(=O)[C@H](C)NC1=O)CCCC=CC[C@]1(CCCN1C(C)=O)C(=O)N[C@@H](CC(=O)O)C(=O)N[C@@H](CC(C)(C)C)C(=O)N2 (stereo partly drawn) [I-972]: 1.879

Request: Given the entry CC(=O)N1CCC[C@]12CC=CCCCC1(CCCC=CCCCOC(=O)N3CC[C@@](C(=O)N[C@@H](Cc4ccccc4)C(=O)N[C@@H](Cc4csc5ccccc45)C(=O)N[C@@H](CCC(N)=O)C(N)=O)(C3)NC(=O)[C@H](CC(N)=O)NC(=O)[C@H](Cc3ccccc3)NC(=O)[C@H](C)NC(=O)[C@H](C)NC(=O)[C@H](CCC(=O)O)NC(=O)[C@H](CC(=O)O)NC1=O)NC(=O)[C@H](CC(C)(C)C)NC(=O)[C@H](CC(=O)O)NC2=O (stereo partly drawn) [I-684] , report its measured CHI Log D.
Response: 2.037

* * *

Assay: CHI Log D procedure
Format: physicochemical
Conditions: pH 7.4
Items are presented alongside their recorded chromatographic logD.
Format: numeric value only, no unit, no commentary.

Some solved entries appear below for comparison.
* C[C@@H]1NC(=O)[C@H](C)NC(=O)[C@H](CN(CC(=O)O)CC(F)(F)F)NC(=O)[C@H](CC(=O)O)NC(=O)C2(CCCC=CCCCOC(=O)N3CC[C@@](C(=O)N[C@@H](Cc4ccsc4)C(=O)N[C@@H](Cc4csc5ccccc45)C(=O)N[C@@H](CCC(N)=O)C(N)=O)(C3)NC(=O)[C@H](CC(N)=O)NC(=O)[C@H](Cc3ccccc3)NC1=O)CCCC=CC[C@]1(CCCN1C(=O)CN=[N+]=[N-])C(=O)N[C@@H](CC(=O)O)C(=O)N[C@@H](CC(C)(C)C)C(=O)N2 (stereo partly drawn) [I-1054] | 2.19
* CC(=O)N[C@@H](Cc1ccccc1)C(=O)N[C@@H](CC(=O)O)C(=O)N[C@@H](C)C(=O)N[C@]1(C)CCCCCCC=CCOC(=O)N2CC[C@@](C(=O)N[C@@H](Cc3ccccc3)C(=O)N[C@@H](Cc3c[nH]c4ccccc34)C(=O)N[C@@H](CCC(N)=O)C(N)=O)(C2)NC(=O)[C@H](C(C)C)NC(=O)[C@H](Cc2ccccc2)NC(=O)[C@H](C)NC(=O)[C@H](C)NC(=O)[C@H](Cc2ccccc2)NC(=O)[C@H](CC(=O)O)NC1=O (single isomer, unassigned) [I-99] | 1.99
* C[C@@H]1NC(=O)[C@H](C)NC(=O)[C@H](CC(=O)O)NC(=O)[C@H](CC(=O)O)NC(=O)C2(CCCC=CCCCOC(=O)N3CC[C@@](C(=O)N[C@@H](Cc4ccsc4)C(=O)N[C@@H](Cc4csc5ccccc45)C(=O)N[C@@H](C(N)=O)[C@H](C)O)(C3)NC(=O)[C@H](CC(N)=O)NC(=O)[C@H](Cc3ccccc3)NC1=O)CCCC=CC[C@]1(CCCN1C(=O)CN=[N+]=[N-])C(=O)N[C@@H](CC(=O)O)C(=O)N[C@@H](CC(C)(C)C)C(=O)N2 (stereo partly drawn) [I-1058] | 2.25
* CC(=O)N1CCC[C@]12CC=CCCCC1(CCCC=CCCCOC(=O)N3CC[C@@](C(=O)N[C@@H](Cc4ccsc4)C(=O)N[C@@H](Cc4csc5ccccc45)C(=O)N[C@@H](CCCCNC(=O)CN=[N+]=[N-])C(N)=O)(C3)NC(=O)[C@H](CC(N)=O)NC(=O)[C@H](Cc3ccccc3)NC(=O)[C@H](C)NC(=O)[C@H](C)NC(=O)[C@H](CC(=O)O)NC(=O)[C@H](CC(=O)O)NC1=O)NC(=O)[C@H](CC(C)(C)C)NC(=O)[C@H](CC(=O)O)NC2=O (stereo partly drawn) [I-878] | 2.09
* CC(=O)N1CCC[C@]12CC=CCCCC1(CCCC=CCCCOC(=O)N3CC[C@@](C(=O)N[C@@H](Cc4ccsc4)C(=O)N[C@@H](Cc4csc5ccccc45)C(=O)N[C@@H](CCC(N)=O)C(N)=O)(C3)NC(=O)[C@H](CC(N)=O)NC(=O)[C@H](Cc3ccccc3)NC(=O)[C@H](C)NC(=O)[C@H](CCCCNC(=O)CN=[N+]=[N-])NC(=O)[C@H](CC(=O)O)NC(=O)[C@H](CC(=O)O)NC1=O)NC(=O)[C@H](CC(C)(C)C)NC(=O)[C@H](CC(=O)O)NC2=O (stereo partly drawn) [I-879] | 2

Request: Given the entry C[C@@H]1NC(=O)[C@H](C)NC(=O)[C@H](CC(=O)O)NC(=O)[C@H](CC(=O)O)NC(=O)C2(CCCC=CCCCOC(=O)N3CC[C@@](C(=O)N[C@@H](Cc4ccccc4Cl)C(=O)N[C@@H](Cc4csc5ccccc45)C(=O)N[C@@H](C(N)=O)[C@H](C)O)(C3)NC(=O)[C@H]([C@@H](C)O)NC(=O)[C@H](Cc3ccccc3)NC1=O)CCCC=CC[C@]1(CCCN1C(=O)CN=[N+]=[N-])C(=O)N[C@@H](CC(=O)O)C(=O)N[C@@H](CC(C)(C)C)C(=O)N2 (stereo partly drawn) [I-1060] , report its measured chromatographic logD.
Response: 2.6

Request: Given the entry CC(=O)N1CCC[C@]12CC=CCCCC1(CCCC=CCCCCCC[C@@](C)(C(=O)N[C@@H](Cc3ccccc3)C(=O)N[C@@H](Cc3c[nH]c4ccccc34)C(=O)N[C@@H](CCC(N)=O)C(N)=O)NC(=O)[C@H](C(C)C)NC(=O)[C@H](Cc3ccccc3)NC(=O)[C@H](C)NC(=O)[C@H](C)NC(=O)[C@H](C)NC(=O)[C@H](CC(=O)O)NC1=O)NC(=O)[C@H](C)NC(=O)[C@H](CC(=O)O)NC2=O (stereo partly drawn) [I-352] , report its measured chromatographic logD.
Response: 2.51

Request: Given the entry C[C@@H]1NC(=O)[C@H](C)NC(=O)[C@H](CN(CC(=O)O)CC(F)(F)F)NC(=O)[C@H](CC(=O)O)NC(=O)C2(CCCC=CCCCOC(=O)N3CC[C@@](C(=O)N[C@@H](Cc4ccccc4Cl)C(=O)N[C@@H](Cc4csc5ccccc45)C(=O)N[C@@H](CCC(N)=O)C(N)=O)(C3)NC(=O)[C@H]([C@@H](C)O)NC(=O)[C@H](Cc3ccccc3)NC1=O)CCCC=CC[C@]1(CCCN1C(=O)CN=[N+]=[N-])C(=O)N[C@@H](CC(=O)O)C(=O)N[C@@H](CC(C)(C)C)C(=O)N2 (stereo partly drawn) [I-1059] , report its measured chromatographic logD.
Response: 2.44

Request: Given the entry CC[C@H](C)[C@@H]1NC(=O)[C@H](CC(=O)O)NC(=O)[C@]2(CC=CCCCC3(CCCC=CCCCCCC[C@@](C)(C(=O)N[C@@H](Cc4ccccc4)C(=O)N[C@@H](Cc4csc5ccccc45)C(=O)N[C@@H](CCC(N)=O)C(N)=O)NC(=O)[C@H](CCC(N)=O)NC(=O)[C@H](Cc4ccccc4)NC(=O)[C@H](CCCCNC(=O)CN=[N+]=[N-])NC(=O)[C@H](C)NC(=O)[C@H](CCC(=O)O)NC(=O)[C@H](CC(=O)O)NC3=O)NC1=O)CCCN2C(C)=O (stereo partly drawn) [I-593] , report its measured chromatographic logD.
Response: 2.12
